- assay.target: Jak2 (UniProt O60674)
- Sequence (O60674 whole entry, looked up): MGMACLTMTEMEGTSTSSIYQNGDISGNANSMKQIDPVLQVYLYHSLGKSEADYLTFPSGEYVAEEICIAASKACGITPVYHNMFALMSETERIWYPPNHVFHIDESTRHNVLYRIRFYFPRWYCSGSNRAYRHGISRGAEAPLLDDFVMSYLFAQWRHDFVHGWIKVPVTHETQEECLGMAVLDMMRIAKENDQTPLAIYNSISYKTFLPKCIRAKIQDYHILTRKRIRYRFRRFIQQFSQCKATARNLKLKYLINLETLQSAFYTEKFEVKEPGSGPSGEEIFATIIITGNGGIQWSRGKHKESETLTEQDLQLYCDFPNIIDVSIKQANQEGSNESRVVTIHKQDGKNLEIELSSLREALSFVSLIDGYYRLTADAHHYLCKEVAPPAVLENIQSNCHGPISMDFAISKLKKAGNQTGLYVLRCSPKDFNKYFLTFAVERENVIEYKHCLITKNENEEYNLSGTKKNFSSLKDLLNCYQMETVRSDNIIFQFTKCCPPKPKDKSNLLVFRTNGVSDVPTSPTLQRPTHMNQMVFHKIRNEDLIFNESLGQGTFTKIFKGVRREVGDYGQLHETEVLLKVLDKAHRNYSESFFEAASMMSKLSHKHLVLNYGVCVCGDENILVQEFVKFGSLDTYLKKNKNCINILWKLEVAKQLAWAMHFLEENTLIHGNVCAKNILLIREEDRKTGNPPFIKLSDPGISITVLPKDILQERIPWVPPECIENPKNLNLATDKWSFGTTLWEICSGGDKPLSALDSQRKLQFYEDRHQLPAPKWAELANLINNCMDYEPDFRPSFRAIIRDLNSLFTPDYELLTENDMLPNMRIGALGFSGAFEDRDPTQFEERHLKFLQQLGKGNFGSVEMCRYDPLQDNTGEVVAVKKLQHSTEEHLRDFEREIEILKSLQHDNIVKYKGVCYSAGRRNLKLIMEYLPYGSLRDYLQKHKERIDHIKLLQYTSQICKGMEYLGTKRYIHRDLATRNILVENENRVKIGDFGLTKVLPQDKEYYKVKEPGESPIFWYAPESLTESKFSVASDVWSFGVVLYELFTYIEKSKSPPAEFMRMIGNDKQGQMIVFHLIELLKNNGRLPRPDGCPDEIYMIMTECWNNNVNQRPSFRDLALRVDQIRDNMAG
- assay.overview: phosphorylation enrichment, bacterial display (enrichment ratio); higher = better substrate or ligand; peptides without Tyr show the background
Please note: class 1 applies when phosphorylation enrichment is 0.9 or greater, and class 0 applies otherwise.

entry.sequence	assay.target	class.label
ADLAKYICENR [ALB_Y287_Q292R]	Jak2 (UniProt O60674)	class 1
GIADDYDKKKL [EIF1_Y54]	Jak2 (UniProt O60674)	class 0
VKMLEYRGKDV [CASP5_Y74_L75R]	Jak2 (UniProt O60674)	class 0
RNVYYYSYLLK [PTEN_Y178_Y174N]	Jak2 (UniProt O60674)	class 1
CLSHCYFSQIR [MCM3AP_Y873_L870S]	Jak2 (UniProt O60674)	class 0
YQGGTYSKACT [FGG_Y380_S384C]	Jak2 (UniProt O60674)	class 0

-- ask hey, is phosphorylation enrichment for this one >= 0.9? SEASYYKSLNL [NGEF_Y289]
-- reply class 1

-- ask hey, is phosphorylation enrichment for this one >= 0.9? QGIYGYHHHMQ [UFSP2_Y287_Y290H]
-- reply class 0

-- ask hey, is phosphorylation enrichment for this one >= 0.9? RESYKYLPSSL [CXXC1_Y218_F219L]
-- reply class 1

-- ask hey, is phosphorylation enrichment for this one >= 0.9? EFNINYNNEPP [THG1L_Y228_L232P]
-- reply class 1

-- ask hey, is phosphorylation enrichment for this one >= 0.9? KRGIDYILRHM [FRMD1_Y225]
-- reply class 0

###

- Test system: c-Src
- assay.overview: phosphorylation enrichment, bacterial display (enrichment ratio); higher = better substrate or ligand; peptides without Tyr show the background
Entries and their phosphorylation enrichment values follow.
Hey, just send me the number, nothing else.

entry.sequence	endpoint.value
KKYPDYIQIAR [SGMS2_Y59_M64R]	0.47
GMIQAYSSSQR [DES_Y5_S2I]	0.37

Please examine the following record next.
So for QPGTDYKIYLY [FN1_Y1970] , the logged phosphorylation enrichment turned out to be 0.804

###

- assay.target: FGFR1 (UniProt P11362)
- Sequence (P11362 whole entry, looked up): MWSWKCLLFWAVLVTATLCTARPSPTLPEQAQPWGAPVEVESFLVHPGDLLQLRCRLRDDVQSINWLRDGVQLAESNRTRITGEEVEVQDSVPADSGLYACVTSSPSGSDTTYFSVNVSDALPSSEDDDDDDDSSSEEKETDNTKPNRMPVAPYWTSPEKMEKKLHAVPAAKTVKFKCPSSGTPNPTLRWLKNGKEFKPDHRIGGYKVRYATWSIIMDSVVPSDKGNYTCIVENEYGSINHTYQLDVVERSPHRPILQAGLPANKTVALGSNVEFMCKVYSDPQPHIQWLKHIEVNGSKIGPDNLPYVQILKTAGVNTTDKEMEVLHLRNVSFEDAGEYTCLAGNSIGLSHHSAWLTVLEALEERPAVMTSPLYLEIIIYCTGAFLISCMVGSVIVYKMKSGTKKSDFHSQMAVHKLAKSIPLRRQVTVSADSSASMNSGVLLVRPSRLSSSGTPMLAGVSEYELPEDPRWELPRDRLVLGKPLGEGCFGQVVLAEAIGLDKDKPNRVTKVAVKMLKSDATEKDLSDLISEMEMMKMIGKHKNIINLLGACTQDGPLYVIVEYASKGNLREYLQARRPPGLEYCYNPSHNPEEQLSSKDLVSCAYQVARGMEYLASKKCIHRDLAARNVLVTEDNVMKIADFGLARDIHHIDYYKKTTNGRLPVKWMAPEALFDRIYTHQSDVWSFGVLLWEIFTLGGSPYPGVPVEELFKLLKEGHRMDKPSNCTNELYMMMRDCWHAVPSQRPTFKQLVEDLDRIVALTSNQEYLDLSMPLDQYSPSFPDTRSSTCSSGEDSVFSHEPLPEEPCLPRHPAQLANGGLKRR
- assay.overview: phosphorylation enrichment, bacterial display (enrichment ratio); higher = better substrate or ligand; peptides without Tyr show the background
Entries and their phosphorylation enrichment values follow.
Hey, just send me the number, nothing else.

Below: 6 sequences and their reported phosphorylation enrichment.
entry.sequence	phosphorylation enrichment
MTYMFYRENLR [NLRP14_Y443_V441M]	0.628
AVEDQYYRVDC [FHL1_Y207_C209R]	8.7
HQEPVYSVAFS [TBL1X_Y509]	4.88
VHSGTYQVMVR [MYBPC3_Y1043_T1046M]	0.456
RFLFFYSFLLK [PTEN_Y178_V175L_YF]	0.885
LERFIYNPEEF [HLA-DPB1_Y59_R61P_YF]	0.934

Please examine the following record next.
So for QEMMEYRRQIQ [DES_Y324_H326R] , the logged phosphorylation enrichment turned out to be 0.424

###

- assay.target: FGFR1 (UniProt P11362)
- assay.overview: phosphorylation enrichment, bacterial display (enrichment ratio); higher = better substrate or ligand; peptides without Tyr show the background
// bucketize phosphorylation enrichment: Low (below 0.5), Medium (0.5 to below 0.6), High (0.6 or more)

Solved cases (4 shown):
entry.sequence	class.label
PEIIAYQPFGK [PRKCG_Y529_YF]	High
ERNARYRTPKI [PTK2B_Y699]	Low
GIVTGYLVLKE [DNMT3B_Y588_A585V]	Medium
FRQLPYCPSVE [CTNND2_Y508_Q507P_YF]	Medium

-- ask Class for GFWPRYVKVGS [NOG_Y172_R167G] ?
-- reply Medium

-- ask Class for RRNSPYSQTMK [TET2_Y819] ?
-- reply High

-- ask Class for RDGDRYFKGIV [DCX_Y64_N60D] ?
-- reply Medium

-- ask Class for RLLVVYPWTRR [HBB_Y36_Q40R] ?
-- reply Medium

###

Entries and their phosphorylation enrichment values follow.
- assay.target: Fyn (UniProt P06241)
- Sequence (P06241 whole entry, looked up): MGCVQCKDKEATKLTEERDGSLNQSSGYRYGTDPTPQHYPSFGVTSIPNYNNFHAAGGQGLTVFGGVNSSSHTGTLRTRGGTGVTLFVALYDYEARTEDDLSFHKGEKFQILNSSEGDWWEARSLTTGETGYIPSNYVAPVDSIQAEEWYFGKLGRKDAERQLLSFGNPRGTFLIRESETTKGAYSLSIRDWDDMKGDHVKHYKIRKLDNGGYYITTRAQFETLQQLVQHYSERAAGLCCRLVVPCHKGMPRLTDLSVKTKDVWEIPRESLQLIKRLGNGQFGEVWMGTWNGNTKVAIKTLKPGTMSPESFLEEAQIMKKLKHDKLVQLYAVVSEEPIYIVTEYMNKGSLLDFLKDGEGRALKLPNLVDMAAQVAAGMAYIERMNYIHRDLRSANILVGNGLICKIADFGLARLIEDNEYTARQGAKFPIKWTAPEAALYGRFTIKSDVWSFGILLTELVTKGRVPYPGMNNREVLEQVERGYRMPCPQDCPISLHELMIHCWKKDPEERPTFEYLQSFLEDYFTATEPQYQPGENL
- assay.overview: phosphorylation enrichment, bacterial display (enrichment ratio); higher = better substrate or ligand; peptides without Tyr show the background
Hey, just send me the number, nothing else.

Below: 2 sequences and their reported phosphorylation enrichment.
entry.sequence	test.readout	endpoint.value
SSAKTYSRMRL [NBEAL2_Y1835_E1833K]	phosphorylation enrichment	0.406
VRLTEYPCAGL	phosphorylation enrichment	0.358

So for TFVVLYDAELT [ERCC4_Y581_R576T_YF] , the logged phosphorylation enrichment turned out to be 0.712

So for DSNLIYSQIWS [FCRL3_Y662_P660L] , the logged phosphorylation enrichment turned out to be 9.04

###

Entries and their phosphorylation enrichment values follow.
- assay.target: Jak2 (UniProt O60674)
- assay.overview: phosphorylation enrichment, bacterial display (enrichment ratio); higher = better substrate or ligand; peptides without Tyr show the background

Below: 4 sequences and their reported phosphorylation enrichment.
entry.sequence	test.readout	endpoint.value
EEALHYLTRVE [SET_Y119]	phosphorylation enrichment	1
EGNERYEGFCV [GRIA3_Y451_YF]	phosphorylation enrichment	1.01
TAGFSYEKWEI [TEC_Y360]	phosphorylation enrichment	1
ETPSEYLEIVR [TMEM130_Y412]	phosphorylation enrichment	1.01

So for PQAVRYIYTID [DCX_Y103_G100A] , the logged phosphorylation enrichment turned out to be 0.983

###

Entries and their phosphorylation enrichment values follow.
- Test system: c-Src
- assay.overview: phosphorylation enrichment, bacterial display (enrichment ratio); higher = better substrate or ligand; peptides without Tyr show the background

Below: 5 sequences and their reported phosphorylation enrichment.
entry.sequence	phosphorylation enrichment
EGNERYEGFCV [GRIA3_Y451_YF]	0.479
GMAHNYRNRSQ [AASS_Y188_S191R]	0.481
KEAALYPHLLP [SQSTM1_Y383_P387L]	0.366
REGAKYVSHSA [ASS1_Y113_G117S]	0.667
GYCSWYRGWAP [TIMP3_Y195]	1.33

The sequence WKEIEYEVVRD [CPS1_Y634] on c-Src: phosphorylation enrichment was 0.473

The sequence GFPVHYTDMSN [DNMT3B_Y815_V818M] on c-Src: phosphorylation enrichment was 0.416

The sequence TLMNAYSSRSH [KIF11_Y231] on c-Src: phosphorylation enrichment was 0.54

The sequence QISQDYGVLLE [PRDX3_Y172_R170Q] on c-Src: phosphorylation enrichment was 0.981

The sequence GNYSGYDDAWD [POLR1C_Y36] on c-Src: phosphorylation enrichment was 0.586

The sequence PSPMPYASCQM [FOXL2_Y215] on c-Src: phosphorylation enrichment was 0.865

The sequence PAGSGYPAFLG [ATP6V1A_Y374_D371G_YF] on c-Src: phosphorylation enrichment was 0.735

The sequence KWELRYMHSRV [ABCD1_Y281_G277W] on c-Src: phosphorylation enrichment was 0.37

The sequence GLDGRYLLRDS [SH2D1A_Y29_S28R] on c-Src: phosphorylation enrichment was 0.436

The sequence GLNKDYRMVVN [HINT1_Y94_G93D] on c-Src: phosphorylation enrichment was 0.415

###

Entries and their phosphorylation enrichment values follow.
- Tested on: c-Abl (mouse)
- assay.overview: phosphorylation enrichment, bacterial display (enrichment ratio); higher = better substrate or ligand; peptides without Tyr show the background
Hey, just send me the number, nothing else.

entry.sequence	phosphorylation enrichment
AFGEVYEGQES [ALK_Y1131_V1135E]	0.842
IDLEKYKLLPE [DHFR_Y157]	0.775
ETKKQYNSFTY [TMED3_Y85_D86N]	0.435
DVQNEYDSNHC [ZFYVE16_Y36_A35E]	0.671
WNNLDYMDSRR [GAA_Y407_D404N]	0.581
AEARMYGVLPW [PLP1_Y207_D203E]	0.989
CEDGNYSPEIS [PTDSS1_Y424_T423N]	0.785
GHLFANDWISI [BEST1_Y227_Y227N_YF]	0.627
YETDYYRKGGK [INSR_Y1190]	0.752
IKKLIYVFLVI [JAGN1_Y42_H44Y_YF]	0.701

Please examine the following record next.
So for GIVTGYLVLKE [DNMT3B_Y588_A585V] , the logged phosphorylation enrichment turned out to be 0.833

###

- assay.target: c-Src SH2;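 also: peptide library displayed on the E. coli surface as eCPX fusions, selected cells deep-sequenced, score is each peptide's frequency after selection divided by its frequency in the input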
- assay.overview: SH2 binding enrichment of the phosphorylated peptide, bacterial display (enrichment ratio); higher = better substrate or ligand; peptides without Tyr show the background
test.readout: SH2 binding enrichment
Hey, just send me the number, nothing else.

entry.sequence	SH2 binding enrichment
GTYEDYVEGLR [MYL6_Y89]	0.766
DAHFTYSRFPW [LY75_Y888_D884A_YF]	0.719
QNWELYSEGLG [CNKSR1_Y665_R662W]	0.628

So for KVNKIYYPDFI [LIG3_Y767] , the logged SH2 binding enrichment turned out to be 0.636

So for SLAARYYNWVS [FLT4_Y1230] , the logged SH2 binding enrichment turned out to be 3.84

So for FIAVGYVDDSQ [HLA-A_Y51_T55S] , the logged SH2 binding enrichment turned out to be 0.704

So for ASENVYVNIAH [CTSC_Y150] , the logged SH2 binding enrichment turned out to be 2.4

So for SETDDYAEIID [PTK2_Y397] , the logged SH2 binding enrichment turned out to be 0.561
